Known MIC of a selection of compounds
Test system: Mycobacterium kansasii
Assay Name: Antimycobacterial activity against Mycobacterium kansasii 6509/96 after 7 days by micromethod
Type: functional
Applied Conditions: 6509/96, 168 h
Observable: MIC

1. CCCCCCn1nnnc1[Se]Cc1cc([N+](=O)[O-])cc([N+](=O)[O-])c1 : 2 µM
2. COc1cc(-n2nnnc2SCc2cc([N+](=O)[O-])cc([N+](=O)[O-])c2)cc(OC)c1OC : 16 µM
3. O=[N+]([O-])c1cc(COc2nnnn2-c2ccc(Cl)cc2)cc([N+](=O)[O-])c1 : 8 µM
4. O=[N+]([O-])c1cc(CSc2nnnn2C2CCCCC2)cc([N+](=O)[O-])c1 : 2 µM
5. CCCCCCn1nnnc1SCc1cc([N+](=O)[O-])cc([N+](=O)[O-])c1 : 2 µM
6. O=[N+]([O-])c1cc(CS(=O)(=O)c2nnnn2-c2ccccc2)cc([N+](=O)[O-])c1 : 32 µM
7. c1ccc(C[Se]c2nnnn2C2CCCCC2)cc1 : 62 µM
8. COc1ccc(-n2nnnc2SCc2ccc([N+](=O)[O-])cc2[N+](=O)[O-])cc1 : 8 µM
9. O=[N+]([O-])c1cc(COc2nnnn2-c2ccc(Cl)c(Cl)c2)cc([N+](=O)[O-])c1 : 4 µM
10. O=[N+]([O-])c1cc(CSc2nnnn2-c2ccc(Cl)cc2)cc([N+](=O)[O-])c1 : 2 µM
11. O=[N+]([O-])c1cc(C[Se]c2nnnn2-c2ccc(Br)cc2)cc([N+](=O)[O-])c1 : 2 µM
12. CC(=O)SCc1cc([N+](=O)[O-])cc([N+](=O)[O-])c1 : 62 µM
13. COC(=O)c1cccc(-n2nnnc2SCc2cc([N+](=O)[O-])cc([N+](=O)[O-])c2)c1 : 500 µM
14. O=[N+]([O-])c1cc(COc2nnnn2-c2ccc(Br)cc2)cc([N+](=O)[O-])c1 : 4 µM
15. COc1ccc(-n2nnnc2[Se]Cc2cc([N+](=O)[O-])cc([N+](=O)[O-])c2)cc1 : 2 µM
16. COc1cccc(-n2nnnc2SCc2cc([N+](=O)[O-])cc([N+](=O)[O-])c2)c1 : 125 µM
17. O=[N+]([O-])c1ccc(CSc2nnnn2C2CCCCC2)c([N+](=O)[O-])c1 : 16 µM
18. O=[N+]([O-])c1cc(CSc2nnnn2-c2ccccc2)cc([N+](=O)[O-])c1 : 2 µM
19. Nn1nnnc1SCc1cc([N+](=O)[O-])cc([N+](=O)[O-])c1 : 16 µM
20. Nc1cc(N)cc(CSc2nnnn2-c2ccccc2)c1 : 250 µM
21. CCCCCCCCCCCCCCCCSCc1cc([N+](=O)[O-])cc([N+](=O)[O-])c1 : 500 µM
22. O=[N+]([O-])c1cc(C[Se]c2nnnn2C2CCCCC2)cc([N+](=O)[O-])c1 : 2 µM
23. O=[N+]([O-])c1cc(CSc2nnnn2-c2ccc(Cl)c(Cl)c2)cc([N+](=O)[O-])c1 : 1 µM
24. COc1ccc(-n2nnnc2[S+]([O-])Cc2cc([N+](=O)[O-])cc([N+](=O)[O-])c2)cc1 (stereo not drawn) : 32 µM
25. O=[N+]([O-])c1ccc(CSc2nnnn2-c2ccccc2)c([N+](=O)[O-])c1 : 8 µM
26. O=[N+]([O-])c1cc(CSCc2ccccc2)cc([N+](=O)[O-])c1 : 125 µM
27. COc1ccc(-n2nnnc2OCc2cc([N+](=O)[O-])cc([N+](=O)[O-])c2)cc1 : 4 µM
28. O=C(O)c1cccc(-n2nnnc2SCc2cc([N+](=O)[O-])cc([N+](=O)[O-])c2)c1 : 1000 µM
29. O=[N+]([O-])c1ccc(CSc2nnnn2-c2ccc([N+](=O)[O-])cc2)cc1 : 250 µM
30. O=[N+]([O-])c1cc(CSc2ccccc2)cc([N+](=O)[O-])c1 : 500 µM
31. O=[N+]([O-])c1cc(CSc2nnnn2C23CC4CC(CC(C4)C2)C3)cc([N+](=O)[O-])c1 : 8 µM
32. O=[N+]([O-])c1cc(C[S+]([O-])c2nnnn2-c2ccccc2)cc([N+](=O)[O-])c1 (stereo not drawn) : 125 µM
33. c1ccc(C[Se]c2nnnn2-c2ccccc2)cc1 : 32 µM
34. O=[N+]([O-])c1cc(CSc2nnn[nH]2)cc([N+](=O)[O-])c1 : 250 µM
35. Cc1ccc(-n2nnnc2SCc2cc([N+](=O)[O-])cc([N+](=O)[O-])c2)cc1C : 250 µM
36. O=[N+]([O-])c1cc(CS(=O)(=O)c2nnnn2C2CCCCC2)cc([N+](=O)[O-])c1 : 8 µM
37. O=[N+]([O-])c1cc(CSc2nnnn2Cc2ccccc2)cc([N+](=O)[O-])c1 : 2 µM
38. O=[N+]([O-])c1cc(C[Se]c2nnnn2Cc2ccccc2)cc([N+](=O)[O-])c1 : 4 µM
